- System: A673/TR/shEF
- Procedure summary: cell viability (LOESS-normalised, relative to median of negative controls) (log2 ratio); higher = more viable cells (less compound effect), active = hit call of the paper (over 3 MAD below the median)
- Test settings: 25 µM; library screen: screen3; EWS-FLI1 expression: high (no doxycycline); treatment time: 72 h
The campaign covered roughly 3,200 compounds. About 300 (9.4%) showed activity. Shown is part of a subset that was picked to be rich in actives.
Quick reference for cell viability (log2) among some compounds

Compound	Study target	cell viability (log2)
CCN(CC)CC(=O)Nc1c(C)cccc1C	A673/TR/shEF	-0.278
NCCCCCC(=O)O	A673/TR/shEF	0.0538
COc1cc([C@@H]2c3cc4c(cc3[C@@H](O[C@@H]3O[C@@H]5CO[C@@H](C)O[C@H]5[C@H](O)[C@H]3O)[C@H]3COC(=O)[C@H]23)OCO4)cc(OC)c1O	A673/TR/shEF	-1.25
COc1cc2c(Oc3ccc4[nH]c(C)cc4c3F)ncnc2cc1OCCCN1CCCC1	A673/TR/shEF	0.0238
COc1cc2c(N3CCN(C(=O)Nc4ccc(OC(C)C)cc4)CC3)ncnc2cc1OCCCN1CCCCC1	A673/TR/shEF	-0.0915
COc1cc2c(Nc3ccc(Br)cc3F)ncnc2cc1OCC1CCN(C)CC1	A673/TR/shEF	-0.0986
CS(=O)(=O)CCNCc1ccc(-c2ccc3ncnc(Nc4ccc(OCc5cccc(F)c5)c(Cl)c4)c3c2)o1	A673/TR/shEF	0.0387
CCC(C)(C)C(=O)O[C@H]1C[C@@H](C)C=C2C=C[C@H](C)[C@H](CC[C@@H]3C[C@@H](O)CC(=O)O3)[C@H]21	A673/TR/shEF	-1.27
CCCS(=O)(=O)Nc1ccc(F)c(C(=O)c2c[nH]c3ncc(-c4ccc(Cl)cc4)cc23)c1F	A673/TR/shEF	-0.179
COc1cc(Nc2c(C#N)cnc3cc(OCCCN4CCN(C)CC4)c(OC)cc23)c(Cl)cc1Cl	A673/TR/shEF	-1.59
COc1cc2ncnc(Nc3ccc(F)c(Cl)c3)c2cc1OCCCN1CCOCC1	A673/TR/shEF	-0.0152
CN(C)C/C=C/C(=O)Nc1cc2c(Nc3ccc(F)c(Cl)c3)ncnc2cc1O[C@H]1CCOC1	A673/TR/shEF	-1.35
COc1c/c(=C2\C=c3ccccc3=N2)[nH]/c1=C\c1[nH]c(C)cc1C	A673/TR/shEF	-4.31
c1cc(CN2CCCNCCNCCCNCC2)ccc1CN1CCCNCCNCCCNCC1	A673/TR/shEF	0.0828
C[C@@H]1C/C=C/C=C/C=C/C=C/[C@H](OC2O[C@H](C)[C@@H](O)[C@H](N)[C@@H]2O)C[C@@H]2O[C@](O)(C[C@@H](O)C[C@H]3O[C@@H]3/C=C/C(=O)O1)C[C@H](O)[C@H]2C(=O)O (some centres not stated)	A673/TR/shEF	0.128
COCC(=O)NC/C=C/c1ccc2ncnc(Nc3ccc(Oc4ccc(C)nc4)c(C)c3)c2c1	A673/TR/shEF	-0.127
CCC(C)n1ncn(-c2ccc(N3CCN(c4ccc(OC[C@H]5CO[C@](Cn6cncn6)(c6ccc(Cl)cc6Cl)O5)cc4)CC3)cc2)c1=O (some centres not stated)	A673/TR/shEF	0.0658
